Test system: SW-620 colon
Test: NCI tumour cell line growth inhibition, 48 h
experimentalEndpoint: TGI

Task item: Using the record for Cc1ccc(Oc2nc3ccccc3cc2-c2nnc(Cn3c(COc4ccccc4)nc4ccccc43)o2)cc1 , report its TGI.
Reply: 4.79 µM

Task item: Using the record for CC1CC2(CCC1OCc1ccccc1)OCCO2 (centres undefined) , report its TGI.
Reply: > 100 µM

Task item: Using the record for CC1CCC2(CC1)N=C1CCC(C)CC1C1(CCC(C)CC1)N2 (centres undefined) , report its TGI.
Reply: > 100 µM

Task item: Using the record for O=C(O)/C=C/C(=O)O , report its TGI.
Reply: > 100 µM

Task item: Using the record for Cc1c(F)c(N)c2c(=O)cc(-c3ccc(NC(=O)C(N)CCCN=C(N)N)c(F)c3)oc2c1F (centres undefined) , report its TGI.
Reply: > 100 µM

Task item: Using the record for CC(=N\N=C\c1ccccn1)/C(C)=N/N=C(C)/C(C)=N/N=C(C)/C(C)=N/N=C/c1ccccn1 , report its TGI.
Reply: > 100 µM

Task item: Using the record for C#CCOC(=O)C(N)CCCN=C(N)N (centres undefined) , report its TGI.
Reply: > 100 µM

Task item: Using the record for COc1cc2c(c(OC)c1OC)-c1ccc(SC)c(=O)cc1C(CC(=O)Oc1cccc(C#N)c1)C2 (centres undefined) , report its TGI.
Reply: > 100 µM

Task item: Using the record for CC(=O)Nc1ccc(-c2nnc(SCC(=O)Nc3ccccc3C)o2)cc1 , report its TGI.
Reply: > 100 µM

Task item: Using the record for Cc1ccc(C[P+](c2ccccc2)(c2ccccc2)c2ccccc2)cc1 , report its TGI.
Reply: 12.2 µM

Task item: Using the record for COc1ccc(/C=C2\CN(C)Cc3c2[nH]c(=O)c(C#N)c3-c2ccc(OC)cc2)cc1 , report its TGI.
Reply: > 100 µM

Task item: Using the record for CNC(=O)OCc1[nH]ccc2c(C)c3nc4ccc(OC)cc4c3cc12 , report its TGI.
Reply: > 26.9 µM

Task item: Using the record for CCOC(=O)c1cnc2cc3cccccc3n2c1=O , report its TGI.
Reply: > 100 µM

Task item: Using the record for COC1/C=C/C(C)C(C(C)C(OC)C(C)CCC(=O)C(C)C(C/C=C/N(C)C=O)OC)OC(=O)/C=C/C=C(\C)CC(OC)C(OC)C2=CC(=O)O[C@@H](C(C)C(OC)CC(OC)/C=C/C(C)C(O)C1)[C@H]2O (some centres undefined) , report its TGI.
Reply: 0.343 µM

Task item: Using the record for O=C1O[C@]2(c3ccccc3)C(c3ccccc3)=C[C@]2(C(=O)c2ccccc2)C1=O , report its TGI.
Reply: 45.1 µM

Task item: Using the record for CN(C)CCn1c(=O)c2ccc3c4c(nn3CCN(C)C)c3ccccc3n(c1=O)c24 , report its TGI.
Reply: 32 µM

Task item: Using the record for C=C1C(=O)O[C@H]2C[C@@H]1CCC1(C)OC1CC/C(C)=C/CC[C@H]2C (some centres undefined) , report its TGI.
Reply: 36.9 µM

Task item: Using the record for COC(=O)C1=Cc2c(cc(OC)c(OC)c2OC)[C@H](c2ccc(OC)c(OC)c2OC)C1C(=O)OC (some centres undefined) , report its TGI.
Reply: > 100 µM

Task item: Using the record for Cc1n(CC(=O)c2ccccc2)nc2sc(N)n[n+]12 , report its TGI.
Reply: > 100 µM

Task item: Using the record for CC1=CC2CC(C)C1(C)CCc1ccoc12 (centres undefined) , report its TGI.
Reply: > 100 µM

Task item: Using the record for OCC(O)C(O)C(O)C(/C=N\Nc1ncnc2ccc(Br)cc12)=N/Nc1ncnc2ccc(Br)cc12 (centres undefined) , report its TGI.
Reply: > 100 µM

Task item: Using the record for NCCCCNC1(c2cc3ccccc3s2)CCCCC1 , report its TGI.
Reply: 14.6 µM

Task item: Using the record for COC(=O)[C@@H]1CCCN1C(=O)[C@H]1CCCN1C(=O)[C@@H](Cc1c[nH]c2ccccc12)NC(=S)Nc1cc(C(F)(F)F)cc(C(F)(F)F)c1 , report its TGI.
Reply: 11.2 µM

Task item: Using the record for O=C(OCc1ccccc1)N1c2cc([N+](=O)[O-])ccc2C(=O)N2CCC[C@H]2C1O (some centres undefined) , report its TGI.
Reply: > 100 µM

Task item: Using the record for N/C(=N\c1nc2ccccc2s1)NC(=O)Nc1cccc2ccccc12 , report its TGI.
Reply: > 100 µM

Task item: Using the record for CC(C)(C)c1cc(C2COC(=O)COCC(=O)OCCOCCOCCO2)cc(C(C)(C)C)c1O (centres undefined) , report its TGI.
Reply: > 100 µM

Task item: Using the record for Oc1ccc(CN(Cc2ccc(C(F)(F)F)cc2)Cc2ccc(O)c3ncccc23)c2cccnc12 , report its TGI.
Reply: > 100 µM

Task item: Using the record for COc1ccccc1NC(=O)C1=C(C)NC(C)=C(C(=O)Nc2ccccc2OC)C1c1cccc2c1OCO2 , report its TGI.
Reply: > 100 µM

Task item: Using the record for CC[C@@]1(O)C(=O)OCc2c1cc1n(c2=O)Cc2cc3c(NC(=O)CN)cccc3nc2-1 , report its TGI.
Reply: > 100 µM
